- System: SF-268 CNS
- experiment-summary: NCI-60 one-dose screen, 48 h (100 = growth as untreated, 0 = no growth, -100 = all killed)
- condition-details: 10 µM unless noted
About 83,000 compounds went through this panel and 20% of them were active in at least one assay; those are over-represented in the sample as a whole. Calls of active or inactive are those of the source. The calls were made as follows: active = growth percent below 10; inactive = the rest.
reported-metric: growth

Looking for the measured growth of COc1cccc(-c2nn(C(C)(C)C)cc2-c2ccnc(NCCCNS(=O)(=O)c3ccc(C)cc3)c2)c1 , can you help? 105% (inactive)

# lookup: growth of C/C1=C\CC[C@@]2(C)O[C@H]2[C@H]2OC(=O)C(CN3CCN(CC4C(=O)O[C@H]5[C@H]4CC/C(C)=C/CC[C@@]4(C)O[C@@H]54)CC3)[C@@H]2CC1 (stereo not given in full) 104% (inactive)

I would be grateful if you could share the reported growth for CCN=C1C=CC(=C(c2ccc(N)cc2)c2ccc(N(CC)CC)c(C)c2)C=C1 . 4.51% (active)

More entries:
Looking for the measured growth of Cc1nc(Nc2ccc(F)c(Cl)c2)sc1C(=O)O , can you help? 29.3% (inactive)

Field request: growth | item: O=[N+]([O-])c1cnc(N2CCN(CC3CC3)CC2)nc1N1CCN(CC2CC2)CC1 87.7% (inactive)

---

- System: NCI-H23 lung
- experiment-summary: NCI-60 one-dose screen, 48 h
- condition-details: 10 µM unless noted
About 83,000 compounds went through this panel and 20% of them were active in at least one assay; those are over-represented in the sample as a whole. Calls of active or inactive are those of the source. How the source made its calls: active means growth percent below 10; inactive means the rest.
One label from this list, please: 1 for active, -1 for inactive

Past entries and their recorded results:
Query: recorded result category for O=C1c2cc3c(cc2-c2c1c1cc(F)c(F)cc1c(=O)n2CCCn1ccnc1)OCO3 in this test 1

Field: outcome | Entry: C#CCOc1ccc2ncnc(N3CCN(C(=O)CCl)CC3)c2c1 -1

Recorded test call requested for CSc1ccc(-c2ccccc(=O)c2O)cc1 -1

# lookup: test call for Fc1ccc(CNc2cccc3[nH]c(C(F)(F)F)nc23)cc1 -1

Can you look up the reported call for O=C1OC(c2ccccc2)C(O)=C1c1ccccc1 (centres undefined) for me? -1

New cases:
Write down the call the test reported for this compound. Item: COc1ccc(SC2c3cc(OC)c(OC)cc3Oc3nc(N)c(C#N)c(N)c32)cc1 (centres undefined) 1

---

- Tested on: SF-295 CNS
- experiment-summary: NCI-60 one-dose screen, 48 h
- condition-details: 10 µM unless noted
About 83,000 compounds went through this panel and 20% of them were active in at least one assay; those are over-represented in the sample as a whole. Activity calls are given as the source filed them. How the source made its calls: active means growth percent below 10; inactive means the rest.
Select the correct class. Options are active, inactive and nothing else.

Example entries and their recorded answers appear below.
Short answer needed: outcome of this test for COc1cc(C)c(C2C(C#N)=C(N)Oc3n[nH]c(-c4cccs4)c32)cc1C(C)C (stereo unspecified) ? inactive

// outcome(item) with item = O=C(CCN1C(=O)/C(=C/c2ccc(Cl)cc2)SC1=S)NCCCN1CCOCC1 inactive

Test call, this molecule: O=C1/C(=C/c2ccccc2)SC(=S)N1CCc1ccc(O)cc1 inactive

Assay outcome for Brc1ccc(-c2csc(Nc3ccccn3)n2)cc1 : what was it? inactive

Could you check what this test reported for O=C1/C(=C/C(Cl)=C/c2ccccc2)SC(=S)N1CCc1ccc(O)cc1 ? active

Further cases:
Dear all, I need the recorded test outcome for COc1ccc(N=Nc2nccs2)c(O)c1 , thank you. inactive

Lab log entry: N#C/C(=C\c1ccc(-c2cc(C(F)(F)F)ccc2Cl)o1)c1nc(-c2ccco2)cs1 — outcome as called in the assay? inactive

Returns: the outcome recorded for Cc1ccc(O)c(N2C(=NCc3ccco3)NS(=O)(=O)c3cnccc32)c1 in this assay. active

Kindly provide the recorded test outcome for the following molecule: COc1cccc(-c2nc3sccn3c2-c2ccnc(NCCCNS(=O)(=O)c3c(Cl)cccc3Cl)c2)c1 inactive

Could you check what this test reported for Cc1[nH]c(-c2cc(N)ccc2Cl)c2c1C(=O)CCCC2 ? inactive

What did this assay record as the result for Cn1c(NCCc2ccc(O)c(O)c2)nc2c1c(=O)n(Cc1ccc(Br)cc1)c(=O)n2C ? inactive

Hey, what did the test say about COc1ccc(-c2nn(-c3ccc(Cl)cc3)cc2-c2nc3ccccc3[nH]2)cc1 ? inactive

Which outcome did this test record for the molecule CN1CCN(CCCOc2cccc3nc(Nc4cc(Cl)cc(Cl)c4)ccc23)CC1 ? inactive

Identify the outcome logged in this assay for the molecule shown: Clc1ccc2c(NCCNc3nc(N4CCOCC4)nc4ccccc34)ccnc2c1 active

---

Property: growth; scope: individual compounds
- Test system: A498 renal
- experiment-summary: NCI-60 one-dose screen, 48 h (100 = growth as untreated, 0 = no growth, -100 = all killed)
- condition-details: 10 µM unless noted
This is part of a sample that, as a whole, favours compounds with a hit. Of some 83,000 tested, about 20% had one in any assay. The source made the active and inactive calls. Rule for the calls: active = growth percent below 10; inactive = the rest.

Find the recorded growth belonging to Cn1cc(C(=O)c2nc(-c3c[nH]c4ccccc34)no2)c2ccccc21 and report it. 95.9% (inactive)

Need growth of Cc1ccc2c(c1)C(=O)/C(=C/c1cccc(OCC(=O)c3ccc(Cl)cc3)c1)CS2 , thanks. 80.4% (inactive)

Fill in the blank: the reported growth of Cc1ccc(O)c(N2C(=NCc3ccco3)NS(=O)(=O)c3cnccc32)c1 is ____. 109% (inactive)

Please report the recorded growth for O=Nc1c(O)c(Cl)cc2ccccc12 . 77.2% (inactive)

Fill in: growth of c1ccc(-c2cc3n4c(-c5ccccc5)nn(-c5ccccc5)c4cnc-3n2)cc1 is ___ 78.1% (inactive)

---
Give its growth value. Item: CN(C)c1ccc(NC(=O)c2ccc(/C=C/C(=O)c3ncc[nH]3)cc2)cc1 94.1% (inactive)

growth lookup needed for CCN(CC)CCCCNc1c2ccc(Cl)cc2nc2ccc(OC)cc12 , thanks. -83.9% (active)

Reported growth for CN(CCCCCl)P(=O)(OCc1ccc([N+](=O)[O-])o1)C(F)(F)c1ccc(CC(=O)NC[C@@H](O)/C=C\[C@@H](O)[C@H](CO)Cc2ccccc2)cc1 (stereo not given in full) : what is it? 83.8% (inactive)

Bench note: what growth did O=C1c2ccccc2OC=C(c2ccccc2)N1CCCCNc1ccc(S(=O)(=O)Nc2ncccn2)cc1 show? 80.2% (inactive)

Any idea what growth was measured for COc1ccc(CN2c3ccccc3Oc3ccccc32)cc1F ? 54.3% (inactive)

---

- Tested on: SK-OV-3 ovarian
- experiment-summary: NCI-60 one-dose screen, 48 h (100 = growth as untreated, 0 = no growth, -100 = all killed)
- condition-details: 10 µM unless noted
This is part of a sample that, as a whole, favours compounds with a hit. Of some 83,000 tested, about 20% had one in any assay. Activity calls are given as the source filed them. How the source made its calls: active means growth percent below 10; inactive means the rest.
Entries and their growth

These recorded examples may help you get a feel for the data.
Given the entry COc1ccc(CCNc2nc(SC)nc(-c3cccc([N+](=O)[O-])c3)c2C#N)cc1OC , report its measured growth. 72.7% (inactive)

Sample Cn1ccnc1C(=O)/C=C/c1ccc(CC(=O)Nc2ccccc2)cc1 — what was its growth? 27.3% (inactive)

Looking for the measured growth of Cc1ccc(/C=C2\SC(=S)N(CC(=O)NCCCN3CCOCC3)C2=O)cc1 , can you help? 82.7% (inactive)

For the compound shown here, Cc1cc(C)nc(SC2=C(Nc3ccc(O)cc3)C(=O)N(Cc3ccccc3)C2=O)n1 , give the reported growth. 94.3% [40 µM] (inactive)

Now consider a different compound.
Look at this compound and give its reported growth. COc1ccc(C2CC(c3ccc(Cl)cc3)=NN2/C=C2\SC(=S)N(NC(=O)Cc3ccccc3Nc3c(Cl)cccc3Cl)C2=O)cc1 (stereo not given) 77.9% (inactive)

---

- Tested on: 786-0 renal
- experiment-summary: NCI-60 one-dose screen, 48 h (100 = growth as untreated, 0 = no growth, -100 = all killed)
- condition-details: 10 µM unless noted
Compounds without any hit were thinned out: in the full panel of roughly 83,000, 20% have a hit.
Reported growth is given for each of the following molecules.
Number in %, nothing else.

Example entries and their recorded answers appear below.
Request - read-out growth | tested on 786-0 renal | molecule O=C(N/N=C/c1c[nH]c2ccccc12)c1cc(-c2ccccc2)on1 97.9

Lab note: need growth with 786-0 renal for entry Oc1cccc2ccc(N/N=C/c3cc(CN4CCOCC4)c(O)c4ncccc34)nc12 , please look it up. 19.4

Entry COc1ccc(SC2c3cc(OC)c(OC)cc3Oc3nc(N)c(C#N)c(N)c32)cc1 (stereo not given) , system 786-0 renal: what growth was measured? -82.6

# query: growth | item COc1cc(-c2nc(C(=O)NCC(=O)NO)nn2-c2ccc(Cl)cc2)cc(OC)c1OC | system: 786-0 renal 101

***
Which measured growth belongs to Cc1[nH]c(-c2ccc3cc[nH]c3c2)c2c1C(=O)CCCC2 , tested on 786-0 renal? 50.5
